Target: T1, HEK293 cyno-NaPi2B-mCherry (Macaca fascicularis, UniProt A0A2K5UHY1)
T1 construct: full-length mCherry fusion stably expressed on HEK293 cells; also called cynomolgus full-length NaPi2b-mCherry on HEK293 cells
T1 sequence (target on cells): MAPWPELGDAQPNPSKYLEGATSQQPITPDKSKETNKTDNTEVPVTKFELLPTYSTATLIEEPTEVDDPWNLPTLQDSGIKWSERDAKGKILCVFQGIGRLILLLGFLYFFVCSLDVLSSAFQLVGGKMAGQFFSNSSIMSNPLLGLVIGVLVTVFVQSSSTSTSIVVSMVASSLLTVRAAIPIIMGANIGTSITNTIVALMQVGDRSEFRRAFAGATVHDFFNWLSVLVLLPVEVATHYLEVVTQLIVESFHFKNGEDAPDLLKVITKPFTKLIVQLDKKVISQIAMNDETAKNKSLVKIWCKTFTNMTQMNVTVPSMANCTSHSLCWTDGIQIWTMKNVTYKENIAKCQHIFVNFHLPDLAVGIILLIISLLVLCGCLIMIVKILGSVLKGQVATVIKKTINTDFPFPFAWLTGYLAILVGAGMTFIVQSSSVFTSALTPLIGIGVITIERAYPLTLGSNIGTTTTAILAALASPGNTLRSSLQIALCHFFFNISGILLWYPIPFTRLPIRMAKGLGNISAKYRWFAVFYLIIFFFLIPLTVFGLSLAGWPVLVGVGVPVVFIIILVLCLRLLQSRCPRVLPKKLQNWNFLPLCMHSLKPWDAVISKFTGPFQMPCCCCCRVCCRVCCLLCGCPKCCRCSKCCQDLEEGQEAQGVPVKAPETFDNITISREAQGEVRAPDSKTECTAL
Test: flow cytometry on HEK293 cells stably expressing cynomolgus full-length NaPi2b-mCherry, Alexa-dye anti-human IgG H+L secondary antibody, MFI ratio, one-site specific binding fit; the Kd table prints no unit, the concentration axis is in nM
parameter-measured: pKd
Quick note: pKd values are minus log10 of concentrations in mol/L.

Enquiry: Returns the measured pKd for the input binder. Input: parental mAb (parental anti-NaPi2b antibody) (antibody, human IgG1, kappa, L234A L235A, V domains shown, also called parental antibody) VH: EVQLVQSGAEVVKPGASVKMSCKASGYTFTGYNIHWVKQAPGQGLEWIGAIYPGNGDTSYKQKFRGRATLTADTSTSTVYMELSSLRSEDSAVYYCARGETARATFAYWGQGTLVTVSS VL: DIQMTQSPSSLSASVGDRVTITCSASQDIGNFLNWYQQKPGKTVKVLIYYTSSLYSGVPSRFSGSGSGTDYTLTISSLQPEDFATYYCQQYSKLPLTFGQGTKLELKR
Return: 8.35
